meta.source: patent US20260125400A1

# experimental system: TYK2 (Homo sapiens, UniProt P29597)
# Construct: Degradation of TYK2 in cells was quantitatively measured using Meso Scale Discovery (MSD) technology; endogenous in cells; host or cells: OCI-LY10
# Sequence (P29597 whole entry): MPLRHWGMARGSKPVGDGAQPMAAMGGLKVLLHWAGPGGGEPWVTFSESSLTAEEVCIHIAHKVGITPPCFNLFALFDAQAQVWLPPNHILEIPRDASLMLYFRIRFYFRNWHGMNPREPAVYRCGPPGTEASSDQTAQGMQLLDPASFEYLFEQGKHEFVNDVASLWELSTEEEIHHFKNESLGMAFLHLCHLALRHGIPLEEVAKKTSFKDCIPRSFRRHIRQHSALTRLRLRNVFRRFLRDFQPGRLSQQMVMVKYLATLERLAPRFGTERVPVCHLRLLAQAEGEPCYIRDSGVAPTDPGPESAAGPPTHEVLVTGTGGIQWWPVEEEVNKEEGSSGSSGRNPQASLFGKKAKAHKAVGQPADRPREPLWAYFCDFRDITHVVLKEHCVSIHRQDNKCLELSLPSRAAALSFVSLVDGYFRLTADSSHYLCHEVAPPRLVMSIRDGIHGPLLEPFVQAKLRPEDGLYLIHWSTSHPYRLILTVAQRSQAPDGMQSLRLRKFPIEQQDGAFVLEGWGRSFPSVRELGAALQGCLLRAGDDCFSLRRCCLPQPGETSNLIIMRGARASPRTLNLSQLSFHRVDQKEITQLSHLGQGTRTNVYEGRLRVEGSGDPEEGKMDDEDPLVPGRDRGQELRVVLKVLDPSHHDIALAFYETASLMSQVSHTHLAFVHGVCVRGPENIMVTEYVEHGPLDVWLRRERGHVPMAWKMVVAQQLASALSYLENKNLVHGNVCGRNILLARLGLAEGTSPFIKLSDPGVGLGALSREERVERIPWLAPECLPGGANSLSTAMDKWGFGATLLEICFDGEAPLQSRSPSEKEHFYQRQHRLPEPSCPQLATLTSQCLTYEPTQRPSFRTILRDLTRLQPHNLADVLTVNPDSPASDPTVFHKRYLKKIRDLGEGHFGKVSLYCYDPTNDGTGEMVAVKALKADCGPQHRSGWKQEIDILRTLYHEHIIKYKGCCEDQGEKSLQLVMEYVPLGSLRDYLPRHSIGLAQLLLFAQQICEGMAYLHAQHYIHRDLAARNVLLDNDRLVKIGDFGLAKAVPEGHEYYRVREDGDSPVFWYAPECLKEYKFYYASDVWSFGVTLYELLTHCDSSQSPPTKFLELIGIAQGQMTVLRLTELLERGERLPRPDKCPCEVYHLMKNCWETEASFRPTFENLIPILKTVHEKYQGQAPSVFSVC
# method notes: TYK2 MSD degradation in OCI-LY10 cells
# Format: cell-based
# particulars: TYK2 degradation in OCI-LY10 cells, 4 to 24 hours incubation, read-out: TYK2 MSD OCI-LY10 Rel-DC50
List of DC50 values.

molecule | experimental system | DC50
CNc1cc(N2CCc3c(-c4ncc(CN5CC6(CCN(C(=O)c7cc(C)c(Cl)c(N8CCC(=O)NC8=O)c7)CC6(F)F)C5)cc4F)cccc32)nn2c(C(=O)N[C@@H]3C[C@@H]3F)cnc12 [I-813] | TYK2 (Homo sapiens, UniProt P29597) | < 1 nM
CNc1cc(N2CCc3c(-c4ncc(CN5CC6(CCN(C(=O)c7cc(C)c(Cl)c(N8CCC(=O)NC8=O)c7)CC6(F)F)C5)cc4F)cccc32)nn2c(C(=O)NC3CC3)cnc12 [I-982] | TYK2 (Homo sapiens, UniProt P29597) | < 1 nM
COC1(c2cc(C)cc(-c3cn(C4CCN(CC5CCN(c6ccc(NC7CCC(=O)NC7=O)c(F)c6)CC5)CC4)c4cnc(NC(C)=O)cc34)n2)CCOC1 (centres unmarked) [I-842] | TYK2 (Homo sapiens, UniProt P29597) | < 1 nM
CNc1cc(N2CCc3c(-c4ccc(CN5CC6(CCN(C(=O)c7cnc(C)c(N8CCC(=O)NC8=O)c7)CC6)C5)cn4)cccc32)nn2c(C(=O)N[C@@H]3C[C@@H]3F)cnc12 [I-351] | TYK2 (Homo sapiens, UniProt P29597) | < 1 nM
CNc1cc(N2CCc3c(CN4CCC(N5CCC6(CCN(C(=O)c7cc(N8CCC(=O)NC8=O)c(C)cc7Cl)CC6)CC5)C(F)(F)C4)cccc32)nn2c(C(=O)N[C@@H]3C[C@@H]3F)cnc12 (some centres unmarked) [I-845] | TYK2 (Homo sapiens, UniProt P29597) | < 1 nM
CNc1cc(N2CCc3c(-c4ccc(CN5CCC6(CCN(C(=O)c7ccc(Cl)c(N8CCC(=O)NC8=O)c7)C6)C5)cn4)cccc32)nn2c(C(=O)NC3CC3F)cnc12 (centres unmarked) [I-302] | TYK2 (Homo sapiens, UniProt P29597) | < 1 nM
CNc1cc(N2CCc3c(-c4cc(CN5CCN(c6ccc7c(c6F)n(C)c(=O)n7C6CCC(=O)NC6=O)CC5)ccn4)cccc32)nn2c(C(=O)NC3CC3)cnc12 (centres unmarked) [I-71] | TYK2 (Homo sapiens, UniProt P29597) | < 1 nM
CNc1cc(N2CCc3c(-c4ncc(CN5CC6(CCN(C(=O)c7cc(C)c(Cl)c(N8CCC(=O)NC8=O)c7)CC6(F)F)C5)cc4F)cccc32)nn2c(C(=O)NC3CCCC3)cnc12 [I-990] | TYK2 (Homo sapiens, UniProt P29597) | < 10 nM
CNc1cc(N2CCc3c(-c4ncc(CN5CC6(CCN(C(=O)c7cc(F)c(Cl)c(N8CCC(=O)NC8=O)c7)CC6(F)F)C5)cc4F)cccc32)nn2c(C(=O)N[C@@H]3C[C@@H]3F)cnc12 [I-994] | TYK2 (Homo sapiens, UniProt P29597) | < 1 nM
COC1(c2cc(C)cc(-c3cn(C4CCN(CC5CCN(C(=O)c6ccc(Cl)c(N7CCC(=O)NC7=O)c6)CC5)CC4)c4cnc(NC(C)=O)cc34)n2)CCOC1 (centres unmarked) [I-858] | TYK2 (Homo sapiens, UniProt P29597) | > 100 nM
CNc1cc(N2CCc3c(-c4ccc(CN5CCC6(C5)CN(C(=O)c5ccc(Cl)c(N7CCC(=O)NC7=O)c5)C6)cn4)cccc32)nn2c(C(=O)NC3CC3F)cnc12 (centres unmarked) [I-297] | TYK2 (Homo sapiens, UniProt P29597) | < 10 nM

----------
# experimental system: TYK2 (Homo sapiens)
# Construct: Degradation of TYK2 in cells was quantitatively measured using Meso Scale Discovery (MSD) technology; endogenous in cells; host or cells: OCI-LY10
# method notes: TYK2 MSD degradation in OCI-LY10 cells
# Format: cell-based
# particulars: TYK2 degradation in OCI-LY10 cells, 4 to 24 hours incubation, read-out: TYK2 MSD OCI-LY10 Rel-DC50
observed property: DC50

molecule | observed property | result
CNc1cc(N2CCc3c(-c4ccc(CN5CCC(N6CCN(c7ccc8c(c7F)n(C)c(=O)n8C7CCC(=O)NC7=O)CC6)C(F)(F)C5)cn4)cccc32)nn2c(C(=O)NC3CC3)cnc12 (stereo not shown) [I-69] | DC50 | < 0.01 µM
CNc1cc(N2CCc3c(-c4ccc(CN5CC6(CCN(C(=O)c7ccc(Cl)c(N8CCC(=O)NC8=O)c7)CC6(F)F)C5)cn4)cc(OC)cc32)nn2c(C(=O)N[C@@H]3C[C@@H]3F)cnc12 [I-859] | DC50 | < 0.01 µM
CNc1cc(N2CCc3c(-c4ccc(N5CCC6(CCN(C(=O)c7ccc(Cl)c(N8CCC(=O)NC8=O)c7)CC6)CC5)cn4)cccc32)nn2c(C(=O)N[C@@H]3C[C@@H]3F)cnc12 [I-249] | DC50 | > 0.1 µM
CNc1cc(N2CCc3c(-c4ccc(N5CC6(CCN(Cc7ccc(N8CCC(=O)NC8=O)c(Cl)c7)CC6)C5)cn4)cccc32)nn2c(C(=O)N[C@@H]3C[C@@H]3F)cnc12 [I-881] | DC50 | < 0.01 µM
CNc1cc(N2CCc3c(-c4ccc(CN5CCC(N6CCC(C#Cc7ccc8c(c7)n(C)c(=O)n8C7CCC(=O)NC7=O)CC6)C(F)(F)C5)cn4)cccc32)nn2c(C(=O)N[C@H]3C[C@H]3F)cnc12 (stereo partly shown) [I-86] | DC50 | < 0.01 µM
CNc1cc(N2CCc3c(-c4ncc(C(=O)N5CC6(CCN(C(=O)c7cc(C)c(Cl)c(N8CCC(=O)NC8=O)c7)CC6(F)F)C5)cc4F)cccc32)nn2c(C(=O)N[C@@H]3CC[C@H]3OC)cnc12 [I-1139] | DC50 | < 0.001 µM
CNc1cc(N2CCc3c(-c4ccc(CN5CC6(CCN(C(=O)c7ccc(C(F)F)c(N8CCC(=O)NC8=O)c7)CC6(F)F)C5)cn4)cccc32)nn2c(C(=O)N[C@@H]3C[C@@H]3F)cnc12 [I-977] | DC50 | < 0.01 µM
CNc1cc(N2CCc3c(-c4ccc(CN5CCC(N6CCN(c7ccc(C8CCC(=O)NC8=O)c(Cl)c7)CC6)C(F)(F)C5)cn4)cccc32)nn2c(C(=O)N[C@H]3C[C@H]3F)cnc12 (stereo partly shown) [I-83] | DC50 | < 0.01 µM
CNc1cc(N2CC3(CCN(CCc4cccc5c4n(C)c(=O)n5C4CCC(=O)NC4=O)CC3)c3ccccc32)nn2c(C(=O)NC3CC3)cnc12 (stereo not shown) [I-41] | DC50 | > 0.1 µM
CNc1cc(N2CCc3c(-c4ccc(CN5CC6(CCN(C(=O)c7ccc(Cl)c(N8CCC(=O)NC8=O)c7)CC6(F)F)C5)cn4)cccc32)nn2c(C(=O)N[C@H]3C[C@H](OC)C3)cnc12 [I-886] | DC50 | < 0.01 µM

----------
List of DC50 values.
# experimental system: TYK2 (Homo sapiens, UniProt P29597)
# Construct: Degradation of TYK2 in cells was quantitatively measured using Meso Scale Discovery (MSD) technology; endogenous in cells; host or cells: OCI-LY10
# method notes: TYK2 MSD degradation in OCI-LY10 cells
# Type: cell-based
# particulars: TYK2 degradation in OCI-LY10 cells, 4 to 24 hours incubation, read-out: TYK2 MSD OCI-LY10 Rel-DC50

compound | DC50
CNc1cc(N2CCc3c(C#CCN4CCC(N5CCN(C(=O)c6ccc(Cl)c(N7CCC(=O)NC7=O)c6)CC5)C(F)(F)C4)cccc32)nn2c(C(=O)NC3CC3F)cnc12 (stereo not drawn) [I-854] | < 1 nM
CNc1cc(N2CCc3c(-c4cc(CN5CCN(c6ccc7c(c6F)n(C)c(=O)n7C6CCC(=O)NC6=O)CC5)ccn4)cccc32)nn2c(C(N)=O)cnc12 (stereo not drawn) [I-81] | < 1 nM
CNc1cc(N2CCc3c(N4CCC(CN5CCC(N6CCN(c7ccc8c(c7)n(C)c(=O)n8C7CCC(=O)NC7=O)CC6)C(F)(F)C5)CC4)cccc32)nn2c(C(=O)NC3CC3)cnc12 (stereo not drawn) [I-5] | < 10 nM

----------
# experimental system: TYK2 (Homo sapiens)
# Construct: Degradation of TYK2 in cells was quantitatively measured using Meso Scale Discovery (MSD) technology; endogenous in cells; host or cells: OCI-LY10
# method notes: TYK2 MSD degradation in OCI-LY10 cells
# Format: cell-based
# particulars: OCI-LY10 cells, 4 to 24 hours incubation

compound | TYK2 MSD OCI-LY10 Dmax %
CNc1cc(N2CCc3c(-c4ccc(CN5CCC6(CC5)CC(COc5ccc(Cl)c(C7CCC(=O)NC7=O)c5)C6)cn4)cccc32)nn2c(C(=O)N[C@@H]3C[C@@H]3F)cnc12 (some centres unmarked) | D (D (<50%))
CNc1cc(N2CCc3c(C#CCN4CCC(N5CCC6(CC5)CN(C(=O)c5ccc(Cl)c(N7CCC(=O)NC7=O)c5)C6)C(F)(F)C4)cccc32)nn2c(C(=O)N[C@@H]3C[C@@H]3F)cnc12 (some centres unmarked) | B (B (90 to >75%))
CNc1cc(N2CCc3c(CN4CCC(N5CCC(CN6CCN(C(=O)c7ccc(Cl)c(N8CCC(=O)NC8=O)c7)CC6)CC5)C(F)(F)C4)cccc32)nn2c(C(=O)N[C@@H]3C[C@@H]3F)cnc12 (some centres unmarked) | B (B (90 to >75%))
CNc1cc(N2CCc3c(CC4CCN(C5CCC6(CC5)CCN(C(=O)c5ccc(Cl)c(N7CCC(=O)NC7=O)c5)CC6)CC4(F)F)cccc32)nn2c(C(=O)N[C@@H]3C[C@@H]3F)cnc12 (some centres unmarked) | B (B (90 to >75%))
CNc1cc(N2CCc3c(CCN4CCC(N5CCC6(CCN(C(=O)c7ccc(Cl)c(N8CCC(=O)NC8=O)c7)CC6)CC5)C(F)(F)C4)cccc32)nn2c(C(=O)NC3CC3F)cnc12 (centres unmarked) | B (B (90 to >75%))
CNc1cc(N2CCc3c(CN4CCC(N5CCN(Cc6ccc(Cl)c(C7CCC(=O)NC7=O)c6)CC5)C(F)(F)C4)cccc32)nn2c(C(=O)NC3CC3F)cnc12 (centres unmarked) | D (D (<50%))
CNc1cc(N2CCc3c(CN4CCC(N5CC(CN6CCN(C(=O)c7ccc(Cl)c(N8CCC(=O)NC8=O)c7)CC6)C5)C(F)(F)C4)cccc32)nn2c(C(=O)N[C@@H]3C[C@@H]3F)cnc12 (some centres unmarked) | B (B (90 to >75%))
